The measurements presented in this section are drawn from the supplement of paper PMC9732359.

Measured protein stability index accompanies every entry in the list below.
Test: protein stability index of a GFP-peptide fusion (yeast GPS) (PSI 1-4); higher = more stable; sorted into four equal gates, so the index is relative within each strain
Conditions: pdr5∆
Field format: numeric only.

TEISGLKNVNKRAFENF [SMC3]    3.09
NKQIEILTDLVNYRHFK [ITC1]    2.99

Now for the sequence whose protein stability index we want.
I'd like to know its protein stability index. The sequence in question is NLNRAFNGDQVIVELLP [DIS3] 2.92

====

Assay: protein stability index of a GFP-peptide fusion (yeast GPS) (PSI 1-4); higher = more stable; sorted into four equal gates, so the index is relative within each strain
Settings: san1∆
Experimental readout: protein stability index
Field format: numeric only.

Here's what some known entries look like.
SFLSGVKSLLSEEKIRD [SIR4]    2.92
QTWSYLSLYSTDLENSS [ECM29]    2.66
IGLVKCTQMTDEGLLNM [GRR1]    2.81
FRENMSKEETVDFIKHS [PRE3]    3.16
LTSPAFGPHVDVNDVLT [GRR1]    3.35
SFLFDVLKTLEYKLATY [NUT1]    3
WDLLPEPIRFLPNQFPL [SWI1]    2.26
DGGKTLRACAANVDQIS [YMR129W/POM152]    2.94
EGVEYLREYLNLPEHIV [RPS10A]    3.2
HSFAVLLHERKLLNDLA [NUT1]    2.46

Now for the sequence whose protein stability index we want.
I'd like to know its protein stability index. The sequence in question is HDSSNGLFQVLHNFESV [NUT1] 2.79
